Recorded IMAX (maximum % competition), one value per entry.
target: T1, human MET-Fc chimeric protein (R&D Systems) (human, UniProt P08581 25-932); assay: competition ELISA, hMET-Fc in solid phase, competitor 0.3 nM biotinylated hHGF
T1 construct: extracellular domain; bought (R&D Systems); also called hMET; not shown: Fc portion of human IgG1
T1 sequence (P08581 25-932, change not shown): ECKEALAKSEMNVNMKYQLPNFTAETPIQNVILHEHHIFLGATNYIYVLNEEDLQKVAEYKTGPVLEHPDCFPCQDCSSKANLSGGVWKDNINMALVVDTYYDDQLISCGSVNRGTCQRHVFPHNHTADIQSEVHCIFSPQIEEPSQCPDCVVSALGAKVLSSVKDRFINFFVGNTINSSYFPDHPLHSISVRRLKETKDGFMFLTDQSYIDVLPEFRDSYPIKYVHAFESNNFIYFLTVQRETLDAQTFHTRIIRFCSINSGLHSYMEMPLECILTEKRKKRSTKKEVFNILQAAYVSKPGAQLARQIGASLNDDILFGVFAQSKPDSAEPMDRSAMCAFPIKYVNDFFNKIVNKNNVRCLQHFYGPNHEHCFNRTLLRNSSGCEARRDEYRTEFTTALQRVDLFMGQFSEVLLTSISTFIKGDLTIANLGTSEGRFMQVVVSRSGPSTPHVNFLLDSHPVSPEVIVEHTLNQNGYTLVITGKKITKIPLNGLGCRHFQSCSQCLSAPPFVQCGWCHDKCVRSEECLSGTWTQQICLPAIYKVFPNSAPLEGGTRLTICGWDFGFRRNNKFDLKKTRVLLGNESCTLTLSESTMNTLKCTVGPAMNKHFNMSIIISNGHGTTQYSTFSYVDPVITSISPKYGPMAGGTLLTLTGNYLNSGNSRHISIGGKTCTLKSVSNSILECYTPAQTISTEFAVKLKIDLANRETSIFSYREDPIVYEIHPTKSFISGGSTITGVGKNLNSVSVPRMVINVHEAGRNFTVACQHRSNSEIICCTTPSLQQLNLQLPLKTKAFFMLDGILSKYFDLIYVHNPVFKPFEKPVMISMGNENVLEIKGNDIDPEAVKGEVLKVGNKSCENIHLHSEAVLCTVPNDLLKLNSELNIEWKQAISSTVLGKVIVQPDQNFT
Respond numerically; units are % and should not be typed.

*Q* Report IMAX (maximum % competition), nothing else, for this binder: chimeric llama-human IgG1 mAb 76G7 (antibody, V domains shown) VH: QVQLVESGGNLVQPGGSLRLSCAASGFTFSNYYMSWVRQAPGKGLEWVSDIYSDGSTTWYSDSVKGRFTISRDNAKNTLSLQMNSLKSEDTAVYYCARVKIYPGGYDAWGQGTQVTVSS VL: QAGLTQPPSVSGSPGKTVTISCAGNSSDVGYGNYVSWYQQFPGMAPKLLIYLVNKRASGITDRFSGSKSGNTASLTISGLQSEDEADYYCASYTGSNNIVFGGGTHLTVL
*A* 69.4

*Q* // fetch IMAX (maximum % competition) given entry chimeric llama-human IgG1 mAb 71G12 (antibody, V domains shown) VH: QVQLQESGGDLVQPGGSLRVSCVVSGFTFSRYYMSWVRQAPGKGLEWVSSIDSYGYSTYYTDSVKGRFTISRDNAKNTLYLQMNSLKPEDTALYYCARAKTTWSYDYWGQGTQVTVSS VL: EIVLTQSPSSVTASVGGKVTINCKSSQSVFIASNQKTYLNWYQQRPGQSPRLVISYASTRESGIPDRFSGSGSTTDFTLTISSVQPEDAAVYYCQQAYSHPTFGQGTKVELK
*A* 51.4

*Q* // Input: chimeric llama-human IgG1 mAb 76H10 (antibody, V domains shown) VH: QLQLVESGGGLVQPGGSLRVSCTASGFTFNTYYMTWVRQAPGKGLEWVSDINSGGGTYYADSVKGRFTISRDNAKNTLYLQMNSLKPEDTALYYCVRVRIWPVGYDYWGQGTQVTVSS VL: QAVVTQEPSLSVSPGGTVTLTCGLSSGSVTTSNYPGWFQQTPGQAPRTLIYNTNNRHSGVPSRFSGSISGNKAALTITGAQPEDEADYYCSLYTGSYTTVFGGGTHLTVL . Output its IMAX (maximum % competition) only.
*A* 64.2

*Q* Tell us which IMAX (maximum % competition) value is on record for chimeric llama-human IgG1 mAb 71A3 (antibody, V domains shown) VH: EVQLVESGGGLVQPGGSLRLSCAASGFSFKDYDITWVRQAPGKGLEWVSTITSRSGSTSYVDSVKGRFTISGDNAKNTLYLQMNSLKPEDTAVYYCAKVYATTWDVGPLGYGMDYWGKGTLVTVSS VL: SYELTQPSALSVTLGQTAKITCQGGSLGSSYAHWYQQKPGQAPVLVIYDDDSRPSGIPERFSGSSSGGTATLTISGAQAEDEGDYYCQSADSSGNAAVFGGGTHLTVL
*A* 93.4

*Q* Report IMAX (maximum % competition), nothing else, for this binder: chimeric llama-human IgG1 mAb 74C8 (antibody, V domains shown) VH: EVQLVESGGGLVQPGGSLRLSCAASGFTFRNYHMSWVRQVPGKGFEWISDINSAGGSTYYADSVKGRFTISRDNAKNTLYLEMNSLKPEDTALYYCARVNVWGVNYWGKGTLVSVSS VL: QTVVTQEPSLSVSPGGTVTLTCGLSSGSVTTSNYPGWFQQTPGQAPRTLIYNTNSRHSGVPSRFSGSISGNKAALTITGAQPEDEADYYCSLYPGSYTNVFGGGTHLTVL
*A* 76.9

*Q* Report IMAX (maximum % competition), nothing else, for this binder: chimeric llama-human IgG1 mAb 71G2 (antibody, V domains shown) VH: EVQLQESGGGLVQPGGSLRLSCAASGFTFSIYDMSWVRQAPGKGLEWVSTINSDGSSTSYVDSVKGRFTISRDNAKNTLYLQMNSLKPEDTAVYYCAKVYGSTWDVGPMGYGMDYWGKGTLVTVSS VL: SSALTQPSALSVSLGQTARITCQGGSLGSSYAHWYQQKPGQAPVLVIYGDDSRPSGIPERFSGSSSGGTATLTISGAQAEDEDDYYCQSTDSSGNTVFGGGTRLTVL
*A* 97.8
